Biological target: hKv1.2 (human (only by the printed prefix h), UniProt P16389)
Assay: cell-based or functional assay
Ends that are not written are not given here.
Outcome measure: ID50 (nM)
The reply should be a number in nM, with the unit left off.

Fill in reported ID50 for this entry: GVIINVKCKISRQCLEPCKDAGMRFGKCMNGKCHCTPK (ends and bridges not checked; cysteine pairing not given here) [[D^20]-OsK1] 77.8

Fill in reported ID50 for this entry: GVIINVKCKISRQCLEPCKKAGMRFGKCMNGKCHCTPK-NH2 (ends and bridges not checked) [OsK1-NH2] 26

Fill in reported ID50 for this entry: GVIINVKCKISRQCLKPCKKAGMRFGKCMNGKCHCTPK (ends and bridges not checked; cysteine pairing not given here) [[K^16]-OsK1] 5.23

Fill in reported ID50 for this entry: VIINVKCKISRQCLEPCKKAGMRFGKCMNGKCHCTPK-NH2 (ends and bridges not checked) [[Δ^1]-OsK1-NH2] 85
